assay.target: PRMT5/MEP50 (Homo sapiens)
Construct: Expressed full-length human Flag-PRMT5/6His-MeP50 protein complex was purified; made in house; host or cells: Spodoptera frugiperda (SF9) insect cells, baculovirus (pDEST8)
Sequence (O14744 with tags, fused parts or gaps): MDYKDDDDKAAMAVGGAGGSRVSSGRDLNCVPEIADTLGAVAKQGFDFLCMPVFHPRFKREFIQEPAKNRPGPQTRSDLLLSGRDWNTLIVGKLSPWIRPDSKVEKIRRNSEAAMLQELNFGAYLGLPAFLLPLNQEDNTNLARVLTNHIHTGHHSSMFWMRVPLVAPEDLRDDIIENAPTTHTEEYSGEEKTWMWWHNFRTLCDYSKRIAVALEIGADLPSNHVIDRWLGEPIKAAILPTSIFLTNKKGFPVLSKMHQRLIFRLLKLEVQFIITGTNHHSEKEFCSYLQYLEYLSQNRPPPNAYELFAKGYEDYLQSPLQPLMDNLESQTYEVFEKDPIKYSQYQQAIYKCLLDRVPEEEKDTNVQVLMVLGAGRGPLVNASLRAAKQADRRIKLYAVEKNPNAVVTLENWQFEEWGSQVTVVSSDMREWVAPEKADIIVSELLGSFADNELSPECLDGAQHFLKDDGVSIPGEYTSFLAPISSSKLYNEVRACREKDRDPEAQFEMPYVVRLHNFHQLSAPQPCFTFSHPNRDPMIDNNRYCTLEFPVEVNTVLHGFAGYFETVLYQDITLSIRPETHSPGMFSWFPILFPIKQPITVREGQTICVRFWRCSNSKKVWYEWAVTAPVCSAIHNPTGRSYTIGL
Sequence (Q9BQA1 with tags, fused parts or gaps partner limits assumed): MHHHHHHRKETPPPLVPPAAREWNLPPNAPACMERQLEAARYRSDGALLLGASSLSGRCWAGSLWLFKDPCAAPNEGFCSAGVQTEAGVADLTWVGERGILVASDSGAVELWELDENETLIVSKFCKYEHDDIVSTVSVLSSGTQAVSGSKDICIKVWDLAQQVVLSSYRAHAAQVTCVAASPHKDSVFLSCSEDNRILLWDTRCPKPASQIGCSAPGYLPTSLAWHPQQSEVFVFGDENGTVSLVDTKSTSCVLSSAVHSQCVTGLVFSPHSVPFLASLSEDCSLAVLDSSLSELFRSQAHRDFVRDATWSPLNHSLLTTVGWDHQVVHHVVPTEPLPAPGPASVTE
experimental.protocol: PRMT5 Biochemical Assay (PRMT5/MEP50 enzyme assay on peptide substrate, 3H-SAM Flashplate)
protocol.conditions: Table D-2; read-out: Biochemical IC50
test.readout: IC50

Looking up OC(CNc1cc(-c2ccc3ncn(C4CCOCC4)c3c2)ccn1)CN1CCc2ccccc2C1 (stereo not shown) [Compound D251] , I see its IC50 listed as < 0.1 µM

---
Input OC(COc1cccc(CNC2CCCCC2)c1)CN1CCc2ccccc2C1 (stereo not shown) [Compound D4] . Output IC50: 0.101 to 1 µM

For record Cn1cnc2cnc(-c3cccc(OCC(O)CN4CCc5ccccc5C4)c3)nc21 (stereo not shown) [Compound D191] the listed IC50 is 0.101 to 1 µM

The compound identified as CC(C)n1cnc2ccc(-c3cccc(OCC(O)CN4CCc5ccccc5C4)c3)cc21 (stereo not shown) [Compound D81] registered its IC50 at 0.101 to 1 µM
